Molecular target: histamine H3 -receptor (Cavia porcellus, UniProt Q9JI35)
Construct: ileum guinea pig; from tissue; host or cells: guinea pig ileum
Sequence (Q9JI35 whole entry): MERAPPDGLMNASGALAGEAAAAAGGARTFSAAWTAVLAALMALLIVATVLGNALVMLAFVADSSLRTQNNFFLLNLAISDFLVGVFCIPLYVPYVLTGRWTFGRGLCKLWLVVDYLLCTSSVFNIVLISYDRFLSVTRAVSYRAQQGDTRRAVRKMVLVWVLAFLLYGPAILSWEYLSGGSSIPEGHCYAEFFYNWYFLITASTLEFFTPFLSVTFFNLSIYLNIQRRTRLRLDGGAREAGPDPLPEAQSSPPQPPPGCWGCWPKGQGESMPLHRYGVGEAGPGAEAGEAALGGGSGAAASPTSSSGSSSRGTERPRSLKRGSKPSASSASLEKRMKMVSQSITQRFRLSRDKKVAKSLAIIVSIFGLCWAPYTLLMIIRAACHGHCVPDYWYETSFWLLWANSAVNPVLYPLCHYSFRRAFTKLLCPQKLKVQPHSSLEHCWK
Assay: Antagonistic activity on the H3-receptor, ileum guinea pig
Type: cell-based
Method: The agonistics and antagonistics activities on the H3 -receptor of the various compounds were determined compared to histamine. The test methods used therefor are described in Van der Werf et al., Agents and Actions 20, 3/4 (1987) p. 239-243 and Menkveld et al., European Journal of Pharmacology, 186 (1990) p. 343-347.
measure: Kb (nM)
Give the quantity in nM, number only.

[
  {
    "compound": "N=C(NCc1ccccc1)SCCc1c[nH]cn1 [VUF 9028]",
    "reading.unit": "nM",
    "Kb": 15.8
  },
  {
    "compound": "N=C(NCCc1ccccc1)SCCCc1c[nH]cn1 [VUF 9151]",
    "reading.unit": "nM",
    "Kb": 1.58
  },
  {
    "compound": "CN=C(NCCc1ccccc1)SCCc1c[nH]cn1 [VUF 9051]",
    "reading.unit": "nM",
    "Kb": 15.8
  }
]

Proceed to the following item.
Q: // Input: N=C(NCCCc1ccccc1)SCCc1c[nH]cn1 [VUF 9030] . Output its Kb only.
A: 25.1
